Target: Serotonin 3 (5-HT3) receptor (Rattus norvegicus, UniProt P35563+Q9JJ16)
Sequence (P35563 whole entry): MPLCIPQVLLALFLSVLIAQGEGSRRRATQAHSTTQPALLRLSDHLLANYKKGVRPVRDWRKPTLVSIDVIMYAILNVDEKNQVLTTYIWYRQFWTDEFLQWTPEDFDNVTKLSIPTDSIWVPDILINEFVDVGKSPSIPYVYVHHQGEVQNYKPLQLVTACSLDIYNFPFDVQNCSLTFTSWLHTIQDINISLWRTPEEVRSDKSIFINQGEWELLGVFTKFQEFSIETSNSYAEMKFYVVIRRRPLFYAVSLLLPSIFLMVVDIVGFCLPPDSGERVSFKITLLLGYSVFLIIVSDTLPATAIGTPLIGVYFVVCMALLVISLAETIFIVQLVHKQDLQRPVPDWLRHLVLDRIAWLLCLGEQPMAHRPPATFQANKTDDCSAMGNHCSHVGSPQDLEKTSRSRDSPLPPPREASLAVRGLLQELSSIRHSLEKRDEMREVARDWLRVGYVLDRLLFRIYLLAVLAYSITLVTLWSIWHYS
Sequence (Q9JJ16 whole entry): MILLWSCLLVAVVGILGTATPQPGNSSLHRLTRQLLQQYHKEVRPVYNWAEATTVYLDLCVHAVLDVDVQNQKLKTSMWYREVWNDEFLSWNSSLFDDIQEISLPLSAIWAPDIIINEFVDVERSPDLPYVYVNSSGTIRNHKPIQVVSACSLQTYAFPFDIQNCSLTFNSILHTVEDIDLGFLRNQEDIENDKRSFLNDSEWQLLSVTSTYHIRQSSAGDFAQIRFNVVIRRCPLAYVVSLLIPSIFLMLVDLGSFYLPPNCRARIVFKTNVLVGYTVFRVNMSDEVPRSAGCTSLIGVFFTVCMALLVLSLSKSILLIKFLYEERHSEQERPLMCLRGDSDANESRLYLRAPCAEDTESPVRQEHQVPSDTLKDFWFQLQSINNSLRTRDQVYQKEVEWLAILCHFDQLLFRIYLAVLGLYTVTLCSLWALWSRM
Assay: Inhibitory activity against 5-hydroxytryptamine 3 receptor in rat cortical membranes using [3H]- 1-Methyl-1H-indazole-3-carboxylic acid (8-methyl-8-aza-bicyclo[3.2.1]oct-3-yl)-amide as a radioligand
Format: cell membranes
Please respond with label 1 when measured Ki is strictly beneath 30 nM, and with label 0 in all other cases.

Example results:
molecule | className
CCN(CC)CCNC(=O)c1cc(Cl)c(N)cc1OC [METOCLOPRAMIDE] | label 0
CN1C2CCC1CC(NC(=O)c1c3ccccc3nn1C)C2 (configuration not stated) | label 0
CN1[C@@H]2CC[C@H]1C[C@@H](OC(=O)c1cc(Cl)cc(Cl)c1)C2 | label 1
c1ccc2nc(N3CCNCC3)ccc2c1 | label 1
COc1cc(N)c(Cl)cc1C(=O)NC1CN2CCC1CC2 (configuration not stated) [ZACOPRIDE] | label 1

Record CN1C2CCC1CC(NC(=O)c1n[nH]c3ccccc13)C2 (configuration not stated) : is its Ki strictly below 30 nM?
label 1

Record CN1[C@@H]2CC[C@H]1C[C@@H](OC(=O)c1c[nH]c3ccccc13)C2 : is its Ki strictly below 30 nM?
label 1

* * *

Below, each entry is listed with its recorded Ki.
Target: Serotonin 3 (5-HT3) receptor (Rattus norvegicus, UniProt P35563+Q9JJ16)
Assay: pKi value for inhibition of [3H]LY-278584 binding to 5-hydroxytryptamine 3 receptor
Type: protein-complex assay

Examples with their reported Ki follow.
molecule | Ki
CN1C2CCC1CC(NC(=O)c1n[nH]c3ccccc13)C2 (configuration not stated) | 4.27 nM
CN1C2CCC1CC(NC(=O)c1c3ccccc3nn1C)C2 (configuration not stated) | 1050 nM
CCN(CC)CCNC(=O)c1cc(Cl)c(N)cc1OC [METOCLOPRAMIDE] | 501 nM
CN1[C@@H]2CC[C@H]1C[C@@H](OC(=O)c1cc(Cl)cc(Cl)c1)C2 [BEMESETRON] | 25.7 nM
c1ccc2nc(N3CCNCC3)ccc2c1 [QUIPAZINE] | 3.02 nM

# get_value(readout='Ki', item= COc1cc(N)c(Cl)cc1C(=O)NC1CN2CCC1CC2 (configuration not stated) [ZACOPRIDE] )
0.417 nM

# get_value(readout='Ki', item= CN1[C@@H]2CC[C@H]1C[C@@H](OC(=O)c1c[nH]c3ccccc13)C2 [TROPISETRON] )
1.29 nM
